- Target System: leukotriene B4 specific receptor on the membrane of human neutrophils (Homo sapiens, UniProt Q15722)
- Construct: a specific receptor on the membrane of human neutrophils; endogenous in cells; host or cells: human peripheral blood neutrophils (buffy coats of two blood donors; intact cells, at least 90% neutrophils)
- Sequence (Q15722 whole entry): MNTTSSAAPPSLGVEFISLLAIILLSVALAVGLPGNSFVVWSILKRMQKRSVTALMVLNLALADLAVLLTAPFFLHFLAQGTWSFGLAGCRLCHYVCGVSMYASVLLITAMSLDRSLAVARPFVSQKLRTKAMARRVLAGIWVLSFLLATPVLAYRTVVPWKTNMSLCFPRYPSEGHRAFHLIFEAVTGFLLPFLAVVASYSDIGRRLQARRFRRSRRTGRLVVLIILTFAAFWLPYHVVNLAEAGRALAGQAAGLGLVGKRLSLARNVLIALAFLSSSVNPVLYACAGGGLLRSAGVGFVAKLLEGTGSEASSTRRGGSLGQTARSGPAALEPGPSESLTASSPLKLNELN
- Measurement Notes: Inhibition of Binding of ^3H-LTB4 to Peripheral Human Neutrophils (radio-ligand binding assay)
- Test Settings: Drug Concentration 10^-5 M; 0.1-0.2 nM ^3H-LTB4, 10 minutes at 4° C.; read-out: LTB4 Binding Inhibition (percent inhibition)
Recorded Endpoint: inhibition at 10 µM (%)
Respond with the bare value in %.

Some solved cases for reference:
molecule="COc1ccc(CCCCCCOc2ccc3c(=O)c4cc(C(=O)O)ccc4oc3c2CCC(=O)O)cc1 [Example 7]" recorded_endpoint="inhibition at 10 µM" assay_value=106
molecule="COc1ccc(C=CCCCCOc2ccc3c(=O)c4cc(C(=O)O)ccc4oc3c2CCC(=O)O)cc1 [Example 6]" recorded_endpoint="inhibition at 10 µM" assay_value=102

Request: Give recorded inhibition at 10 µM. CCCCCCCCCCOc1ccc2c(=O)c3cc(C(=O)O)ccc3oc2c1CCC(=O)O [Example 4]
Response: 102

Request: Give recorded inhibition at 10 µM. CCCCCCCCCCOc1cc2c(cc1CCC(=O)O)C(=O)c1cc(C(=O)O)ccc1-2 [Example 8]
Response: 68
